Target: human SOS1 (loading of human K-Ras^G12C-GDP with fluorescent GTP-analog) (Homo sapiens, UniProt Q07889)
Experiment: Biochemical assay 3: K-Ras^G12C activation assay by hSOS1 (HTRF)
Conditions: no GTP; read-out: Assay 3 (KRAS-Activation by SOS no GTP) activity expressed as IC50
measured.property: IC50

Known results for compounds:
COc1cc2nc(C)nc(NC(C)c3cc(Br)cc4c3OCC4)c2cc1OC (centres unmarked) [Example 225] ... 4680 nM
COc1cc2nc(C)nc(NC(C)c3ccc(-c4ccccc4CN(C)CCO)s3)c2cc1OC (centres unmarked) ... 58.8 nM

Specify measured IC50 for COc1cc2nc(C)nc(N[C@H](C)c3cccc(-c4ccn[nH]4)c3)c2cc1OC [Example 337] .
1350 nM

Specify measured IC50 for COc1cc2nc(C)nc(N[C@H](C)c3cccc(-c4ccc5[nH]ccc5c4)c3)c2cc1OC .
1260 nM

Specify measured IC50 for COc1cc2nc(C)nc(N[C@H](C)c3cccc(-c4ccc(F)cc4CN)c3)c2cc1OC .
214 nM
